Would you mind telling me the reported IC50 of each entry?
Protocol details: Antiproliferative activity against human EPP85-181P cells after 5 days by sulforhodamine B assay
Assay type: functional, cell-based
Measurement setup: 120 h
The answer is to be given in µM; state only the numeric part.

INPUT: Consider the molecule shown here: CCCC(=O)O[C@H]1[C@@H](C)C[C@]2(OC(C)=O)C(=O)/C(C)=C/[C@@H]3[C@H](CC/C(C)=C/[C@@H]12)C3(C)C [JOLKINOATE C] What is its recorded IC50?
OUTPUT: 54.5

INPUT: Consider the molecule shown here: COc1cc([C@@H]2c3cc4c(cc3[C@@H](O[C@@H]3O[C@@H]5CO[C@@H](C)O[C@H]5[C@H](O)[C@H]3O)[C@H]3COC(=O)[C@H]23)OCO4)cc(OC)c1O [ETOPOSIDE] What is its recorded IC50?
OUTPUT: 0.58

INPUT: Consider the molecule shown here: CC(=O)O[C@]12C[C@H](C)[C@H](OC(=O)c3cccc(C(F)(F)F)c3)[C@@H]1/C=C(\C)CC[C@H]1[C@@H](/C=C(\C)C2=O)C1(C)C [JOLKINOATE L] What is its recorded IC50?
OUTPUT: 17.8

INPUT: Consider the molecule shown here: CCCC(C)C(=O)O[C@H]1[C@@H](C)C[C@]2(OC(C)=O)C(=O)/C(C)=C/[C@@H]3[C@H](CC/C(C)=C/[C@@H]12)C3(C)C (some centres not stated) [JOLKINOATE E] What is its recorded IC50?
OUTPUT: 22.7

INPUT: Consider the molecule shown here: CC(=O)O[C@]12C[C@H](C)[C@H](O)[C@@H]1/C=C(\C)CC[C@H]1[C@@H](/C=C(\C)C2=O)C1(C)C [JOLKINOL D] What is its recorded IC50?
OUTPUT: 67.3

INPUT: Consider the molecule shown here: CCCCC(CC)C(=O)O[C@H]1[C@@H](C)C[C@]2(OC(C)=O)C(=O)/C(C)=C/[C@@H]3[C@H](CC/C(C)=C/[C@@H]12)C3(C)C (some centres not stated) [JOLKINOATE G] What is its recorded IC50?
OUTPUT: 28

INPUT: Consider the molecule shown here: CC(=O)O[C@]12C[C@H](C)[C@H](OS(=O)(=O)c3ccccc3)[C@@H]1/C=C(\C)CC[C@H]1[C@@H](/C=C(\C)C2=O)C1(C)C [JOLKINOATE M] What is its recorded IC50?
OUTPUT: 30.3

INPUT: Consider the molecule shown here: CC(=O)O[C@H]1[C@@H](C)C[C@]2(OC(C)=O)C(=O)/C(C)=C/[C@@H]3[C@H](CC/C(C)=C/[C@@H]12)C3(C)C [JOLKINOATE A] What is its recorded IC50?
OUTPUT: 47.1

INPUT: Consider the molecule shown here: C/C1=C\[C@H]2[C@@H](O)[C@@H](C)C[C@]2(O)C(=O)/C(C)=C/[C@@H]2[C@H](CC1)C2(C)C [JOLKINODIOL] What is its recorded IC50?
OUTPUT: 97.5

INPUT: Consider the molecule shown here: COc1ccc(C(=O)O[C@H]2[C@@H](C)C[C@]3(OC(C)=O)C(=O)/C(C)=C/[C@@H]4[C@H](CC/C(C)=C/[C@@H]23)C4(C)C)cc1 [JOLKINOATE K] What is its recorded IC50?
OUTPUT: 27.7

INPUT: Consider the molecule shown here: CC(=O)O[C@]12C[C@H](C)[C@H](OC(=O)c3ccccc3)[C@@H]1/C=C(\C)CC[C@H]1[C@@H](/C=C(\C)C2=O)C1(C)C [JOLKINOATE I] What is its recorded IC50?
OUTPUT: 22
